biological target: recombinant human C-proteinase (Homo sapiens); assay: C-proteinase IC50 assay with fluorogenic peptide; type: biochemical; settings: recombinant human C-proteinase, 50 μM fluorogenic peptide, 4 hours at 37° C.; read-out: IC50 (μM) Of Various C-Proteinase Inhibitors
Sequence (P13497 121-986): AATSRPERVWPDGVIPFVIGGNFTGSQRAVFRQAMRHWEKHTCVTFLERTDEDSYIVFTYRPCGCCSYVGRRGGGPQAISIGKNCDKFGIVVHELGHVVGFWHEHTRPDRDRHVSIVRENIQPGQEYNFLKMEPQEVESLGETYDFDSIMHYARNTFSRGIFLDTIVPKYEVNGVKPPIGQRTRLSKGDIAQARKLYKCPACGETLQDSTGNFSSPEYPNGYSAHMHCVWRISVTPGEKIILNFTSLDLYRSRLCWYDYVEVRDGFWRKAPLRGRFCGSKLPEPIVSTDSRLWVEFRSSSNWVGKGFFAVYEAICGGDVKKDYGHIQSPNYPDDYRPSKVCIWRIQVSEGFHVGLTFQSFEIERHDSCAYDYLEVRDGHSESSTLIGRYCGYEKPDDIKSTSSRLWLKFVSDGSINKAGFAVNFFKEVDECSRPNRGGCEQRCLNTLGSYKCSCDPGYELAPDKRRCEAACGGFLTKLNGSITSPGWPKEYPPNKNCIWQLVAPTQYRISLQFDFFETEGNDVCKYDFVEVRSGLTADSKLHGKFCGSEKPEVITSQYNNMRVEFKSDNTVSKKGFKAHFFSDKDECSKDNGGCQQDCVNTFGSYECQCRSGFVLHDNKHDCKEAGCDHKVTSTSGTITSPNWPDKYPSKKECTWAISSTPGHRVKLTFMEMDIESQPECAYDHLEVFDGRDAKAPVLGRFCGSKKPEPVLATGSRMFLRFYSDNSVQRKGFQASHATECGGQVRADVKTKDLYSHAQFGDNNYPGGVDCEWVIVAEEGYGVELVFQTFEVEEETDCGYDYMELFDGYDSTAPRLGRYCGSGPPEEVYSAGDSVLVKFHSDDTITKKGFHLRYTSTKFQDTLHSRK
outcome measure: log10 IC50 (log10 of the value in µM)
Use the decimal logarithm of IC50 (µM).

{"compound": "O=C(CCN(CCc1cccs1)S(=O)(=O)c1cccs1)NO [compound 1425]", "log10 IC50": 0.12}
{"compound": "COc1ccc(S(=O)(=O)N(CCC(=O)NO)CCc2ccc(Cl)cc2)cc1 [compound 1300]", "log10 IC50": 0.39}
{"compound": "CS(=O)(=O)c1ccc(S(=O)(=O)N(CCC(=O)NO)CCc2cccs2)cc1 [compound 1463]", "log10 IC50": -0.15}
{"compound": "O=C(CCN(Cc1ccc2c(c1)OCO2)S(=O)(=O)c1cccs1)NO [compound 1371]", "log10 IC50": -0.04}
{"compound": "O=C(CCN(CCc1cccs1)S(=O)(=O)c1ccc(S(=O)(=O)c2ccccc2)s1)NO [compound 1419]", "log10 IC50": 0.60}

Param item = COc1ccc(CCN(CCC(=O)NO)S(=O)(=O)c2ccc(-c3nnn[nH]3)cc2)cc1 [compound 1496] ; retrieve measured log10 IC50. -0.60

Param item = COc1ccc(CCN(CC(=O)NO)S(=O)(=O)c2ccc(OC)cc2)cc1 [compound 204] ; retrieve measured log10 IC50. 1.34

Param item = O=C(CCN(CCc1cccs1)S(=O)(=O)c1ccc(Br)s1)NO [compound 1417] ; retrieve measured log10 IC50. 0.22
